Study Target: Calpain-1 catalytic subunit (Sus scrofa)
Sequence (P35750 whole entry): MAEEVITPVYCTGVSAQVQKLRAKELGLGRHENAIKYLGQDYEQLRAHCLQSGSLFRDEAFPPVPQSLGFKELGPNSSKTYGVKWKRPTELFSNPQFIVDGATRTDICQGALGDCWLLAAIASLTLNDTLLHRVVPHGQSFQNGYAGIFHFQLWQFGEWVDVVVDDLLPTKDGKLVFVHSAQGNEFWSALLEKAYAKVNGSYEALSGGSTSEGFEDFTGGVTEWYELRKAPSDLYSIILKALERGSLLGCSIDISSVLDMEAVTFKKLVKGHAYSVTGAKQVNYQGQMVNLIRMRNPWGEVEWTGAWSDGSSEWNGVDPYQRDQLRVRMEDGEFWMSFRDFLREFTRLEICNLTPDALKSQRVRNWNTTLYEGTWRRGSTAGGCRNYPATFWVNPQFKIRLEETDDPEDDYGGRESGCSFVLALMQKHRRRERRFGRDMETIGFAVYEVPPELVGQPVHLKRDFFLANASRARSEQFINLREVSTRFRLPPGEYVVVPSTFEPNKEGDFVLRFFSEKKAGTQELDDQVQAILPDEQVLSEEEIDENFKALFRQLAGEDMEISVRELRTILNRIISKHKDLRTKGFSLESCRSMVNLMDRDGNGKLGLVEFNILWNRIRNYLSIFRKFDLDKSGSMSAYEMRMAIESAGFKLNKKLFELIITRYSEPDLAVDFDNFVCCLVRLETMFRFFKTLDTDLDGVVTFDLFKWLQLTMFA
Procedure Summary: Inhibition of Ca2+-dependent activation of porcine calpain-1 using H-K(FAM)-EVYGMMK(DABCYL)-OH as substrate by FRET assay
Readout Kind: IC50 (nM)

Query: Let me know recorded IC50 for O=C(O)/C(S)=C/c1c[nH]c2cc(Br)ccc12 , thanks.
Reply: 7

1 = O=C(O)/C(S)=C/c1c[nH]c2cc(Cl)ccc12
2 = O=C(O)/C(S)=C/c1cccc(Br)c1
Query: Returns: the argument ( 1 or 2 ) having the larger IC50. Kindly state the label of the option you pick.
Reply: 2
(2: 4000 nM, 1: 210 nM)

* * *

Study Target: Calpain-1 catalytic subunit (Sus scrofa)
Procedure Summary: Inhibition of Ca2+-dependent activation of porcine calpain-1 using SucLY-AMC as substrate
Readout Kind: IC50 (nM)

I = O=C(O)/C(S)=C/c1c[nH]c2cc(F)ccc12
II = O=C(O)/C(S)=C/c1c[nH]c2c(Br)cccc12
Query: // compare: I vs II , metric IC50, want the smaller Kindly state the label of the option you pick.
Reply: II

* * *

Study Target: Calpain-1 catalytic subunit (Sus scrofa)
Procedure Summary: Inhibition of Ca2+-dependent activation of porcine calpain-1 using H-K(FAM)-EVYGMMK(DABCYL)-OH as substrate by FRET assay
Readout Kind: IC50 (nM)

Worked cases, IC50 given:
Query: Let me know recorded IC50 for O=C(O)/C(S)=C/c1ccccc1Cl , thanks.
Reply: 11900

Query: Let me know recorded IC50 for O=C(O)/C(S)=C/c1c[nH]c2c(F)cccc12 , thanks.
Reply: 120

Query: Let me know recorded IC50 for O=C(O)/C(S)=C/c1c[nH]c2cc(I)ccc12 , thanks.
Reply: 170

Query: Let me know recorded IC50 for O=C(O)/C(S)=C/c1ccc(Br)cc1 , thanks.
Reply: 1500

Query: Let me know recorded IC50 for O=C(O)/C(S)=C/c1c[nH]c2c(Cl)cccc12 , thanks.
Reply: 10

Query: Let me know recorded IC50 for O=C(O)/C(S)=C/c1cccc(F)c1 , thanks.
Reply: 19000

Query: Let me know recorded IC50 for O=C(O)/C(S)=C/c1c[nH]c2ccc(Br)cc12 , thanks.
Reply: 6

Query: Let me know recorded IC50 for O=C(O)/C(S)=C/c1cccc(Cl)c1 , thanks.
Reply: 4200

A = O=C(O)/C(S)=C/c1ccc(Cl)cc1
B = O=C(O)/C(S)=C/c1c[nH]c2cccc(F)c12
C = O=C(O)/C(S)=C/c1cccc(I)c1
D = O=C(O)/C(S)=C/c1c[nH]c2ccc(Cl)cc12
E = O=C(O)/C(S)=C/c1ccc(F)cc1
Query: # desc sort on IC50 across 5 compounds Please list the labels in the order you were asked to rank them.
Reply: E, C, A, D, B

Cited source: ChEMBL document CHEMBL3217751
